assay: Microsomal intrinsic clearance, human; settings: human, microsomes, NADPH-dependent CLint

Compound | microsomal CLint at 1 μM (µL/min/mg)
C[S+]([O-])c1ccc(NC(=O)c2cccc(SCc3ccc(Cl)cc3)c2)cc1 (stereo not shown) | 241

----------
assay: Microsomal stability screen, human; details: 1 μM
Measure: Mean remaining parent with NADPH (%)

Smiles Structure | Quantitative Readout
CN(c1ccc(F)cc1)S(=O)(=O)c1cccc(C(=O)Nc2ccc(C#N)cc2)c1 | 16
CN(c1ccc(Cl)cc1)S(=O)(=O)c1cccc(C(=O)Nc2ccc(S(C)(=O)=O)cc2)c1 | 2
CN(c1ccc(Cl)cc1)S(=O)(=O)c1cccc(C(=O)Nc2ccc(C#N)cn2)c1 | 2
N#Cc1ccc(NC(=O)c2cccc(S(=O)(=O)Cc3ccc(Cl)cc3)c2)cc1 | 89

Origin of measurements: patent US9890117B2
